- target under test: T1, recombinant core fragment (CF) of STAT3 (human, UniProt P40763 127-722)
- T1 construct: STAT3, human, core fragment (CC, DBD and SH2 domains), a.a; For the crystal the methods say 'TEV cleaved-MS3-6 and STAT3-CF'; it is not clear whether the tags of STAT3-CF were cut too; also called STAT3-CF; source: E. coli BL21 (DE3), pHBT vector, purified (Ni-NTA, SEC)
- T1 sequence (P40763 127-722): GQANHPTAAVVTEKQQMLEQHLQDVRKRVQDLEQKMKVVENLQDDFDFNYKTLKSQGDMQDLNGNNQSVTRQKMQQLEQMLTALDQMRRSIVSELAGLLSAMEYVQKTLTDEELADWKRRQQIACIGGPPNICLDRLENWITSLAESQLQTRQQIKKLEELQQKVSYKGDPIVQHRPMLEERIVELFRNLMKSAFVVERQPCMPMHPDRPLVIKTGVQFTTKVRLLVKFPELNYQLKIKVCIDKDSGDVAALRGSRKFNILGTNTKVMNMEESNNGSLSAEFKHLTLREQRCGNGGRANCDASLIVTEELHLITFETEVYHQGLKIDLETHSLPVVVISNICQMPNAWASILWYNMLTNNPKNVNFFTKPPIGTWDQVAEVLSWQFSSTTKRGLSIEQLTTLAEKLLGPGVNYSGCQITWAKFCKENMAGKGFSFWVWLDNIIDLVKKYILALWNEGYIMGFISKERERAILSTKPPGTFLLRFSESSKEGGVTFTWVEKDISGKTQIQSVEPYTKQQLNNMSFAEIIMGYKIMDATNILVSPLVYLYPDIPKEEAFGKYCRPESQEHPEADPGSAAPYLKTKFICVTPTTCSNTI
- assay remarks: fluorescence polarisation; fluorescent gp130 pY-peptide and recombinant STAT3-CF (Supplementary Fig. 3a); TBS (50 mM Tris pH 7.5, 150 mM NaCl)
- assay context: both partners purified
Where no end group is shown, it is not given here. [ ]: non-standard residue; d: D form. pY = N[C@@H](Cc1ccc(OP(=O)(O)O)cc1)C(=O)O
readout: Kd (nM)
Reply with just the number (in nM).

// query Reported Kd for GMPKS[pY]LPQTVR-NH2 (not fully specified (N-terminus), gp130, cytosolic tail around the Y905 docking site; also called gp130 pY-peptide; phospho-gp130 peptide; source: synthetic peptide) [fluorescent pY-peptide encompassing the pY905 docking site of gp130] : what is it?
// result 930
